Molecular target: inducible NO synthase (Mus musculus, UniProt P29477)
Construct: The NO synthase is isolated with an extraction buffer; endogenous in cells; sonicated, 100,000 g ultracentrifuged extract
Assay: In vitro effect on the production of nitrites by murine macrophages J774A1
Assay type: cell-based
Conditions: J774A1 cells, LPS 1 μg/ml + IFN-γ 50 U/ml, 48 hours; read-out: IC50 Inducible NO synthase (formation of nitrites)
Each item that follows carries a reported IC50.
Lab note: write values as number then unit, every time.

| ENTRY_SMILES | RESULT |
| --- | --- |
| N=C(N)NN | 22 µM |

Could you now look at the following molecule, please?
Provide IC50, system inducible NO synthase (Mus musculus, UniProt P29477), entry `CC(C)(C)c1cc(C(=O)O)cc(C(C)(C)C)c1O.N=C(N)NN` 26 µM
